# study-system: Voltage-dependent T-type calcium channel subunit alpha-1H (Homo sapiens, UniProt O95180)
# Sequence (O95180 whole entry): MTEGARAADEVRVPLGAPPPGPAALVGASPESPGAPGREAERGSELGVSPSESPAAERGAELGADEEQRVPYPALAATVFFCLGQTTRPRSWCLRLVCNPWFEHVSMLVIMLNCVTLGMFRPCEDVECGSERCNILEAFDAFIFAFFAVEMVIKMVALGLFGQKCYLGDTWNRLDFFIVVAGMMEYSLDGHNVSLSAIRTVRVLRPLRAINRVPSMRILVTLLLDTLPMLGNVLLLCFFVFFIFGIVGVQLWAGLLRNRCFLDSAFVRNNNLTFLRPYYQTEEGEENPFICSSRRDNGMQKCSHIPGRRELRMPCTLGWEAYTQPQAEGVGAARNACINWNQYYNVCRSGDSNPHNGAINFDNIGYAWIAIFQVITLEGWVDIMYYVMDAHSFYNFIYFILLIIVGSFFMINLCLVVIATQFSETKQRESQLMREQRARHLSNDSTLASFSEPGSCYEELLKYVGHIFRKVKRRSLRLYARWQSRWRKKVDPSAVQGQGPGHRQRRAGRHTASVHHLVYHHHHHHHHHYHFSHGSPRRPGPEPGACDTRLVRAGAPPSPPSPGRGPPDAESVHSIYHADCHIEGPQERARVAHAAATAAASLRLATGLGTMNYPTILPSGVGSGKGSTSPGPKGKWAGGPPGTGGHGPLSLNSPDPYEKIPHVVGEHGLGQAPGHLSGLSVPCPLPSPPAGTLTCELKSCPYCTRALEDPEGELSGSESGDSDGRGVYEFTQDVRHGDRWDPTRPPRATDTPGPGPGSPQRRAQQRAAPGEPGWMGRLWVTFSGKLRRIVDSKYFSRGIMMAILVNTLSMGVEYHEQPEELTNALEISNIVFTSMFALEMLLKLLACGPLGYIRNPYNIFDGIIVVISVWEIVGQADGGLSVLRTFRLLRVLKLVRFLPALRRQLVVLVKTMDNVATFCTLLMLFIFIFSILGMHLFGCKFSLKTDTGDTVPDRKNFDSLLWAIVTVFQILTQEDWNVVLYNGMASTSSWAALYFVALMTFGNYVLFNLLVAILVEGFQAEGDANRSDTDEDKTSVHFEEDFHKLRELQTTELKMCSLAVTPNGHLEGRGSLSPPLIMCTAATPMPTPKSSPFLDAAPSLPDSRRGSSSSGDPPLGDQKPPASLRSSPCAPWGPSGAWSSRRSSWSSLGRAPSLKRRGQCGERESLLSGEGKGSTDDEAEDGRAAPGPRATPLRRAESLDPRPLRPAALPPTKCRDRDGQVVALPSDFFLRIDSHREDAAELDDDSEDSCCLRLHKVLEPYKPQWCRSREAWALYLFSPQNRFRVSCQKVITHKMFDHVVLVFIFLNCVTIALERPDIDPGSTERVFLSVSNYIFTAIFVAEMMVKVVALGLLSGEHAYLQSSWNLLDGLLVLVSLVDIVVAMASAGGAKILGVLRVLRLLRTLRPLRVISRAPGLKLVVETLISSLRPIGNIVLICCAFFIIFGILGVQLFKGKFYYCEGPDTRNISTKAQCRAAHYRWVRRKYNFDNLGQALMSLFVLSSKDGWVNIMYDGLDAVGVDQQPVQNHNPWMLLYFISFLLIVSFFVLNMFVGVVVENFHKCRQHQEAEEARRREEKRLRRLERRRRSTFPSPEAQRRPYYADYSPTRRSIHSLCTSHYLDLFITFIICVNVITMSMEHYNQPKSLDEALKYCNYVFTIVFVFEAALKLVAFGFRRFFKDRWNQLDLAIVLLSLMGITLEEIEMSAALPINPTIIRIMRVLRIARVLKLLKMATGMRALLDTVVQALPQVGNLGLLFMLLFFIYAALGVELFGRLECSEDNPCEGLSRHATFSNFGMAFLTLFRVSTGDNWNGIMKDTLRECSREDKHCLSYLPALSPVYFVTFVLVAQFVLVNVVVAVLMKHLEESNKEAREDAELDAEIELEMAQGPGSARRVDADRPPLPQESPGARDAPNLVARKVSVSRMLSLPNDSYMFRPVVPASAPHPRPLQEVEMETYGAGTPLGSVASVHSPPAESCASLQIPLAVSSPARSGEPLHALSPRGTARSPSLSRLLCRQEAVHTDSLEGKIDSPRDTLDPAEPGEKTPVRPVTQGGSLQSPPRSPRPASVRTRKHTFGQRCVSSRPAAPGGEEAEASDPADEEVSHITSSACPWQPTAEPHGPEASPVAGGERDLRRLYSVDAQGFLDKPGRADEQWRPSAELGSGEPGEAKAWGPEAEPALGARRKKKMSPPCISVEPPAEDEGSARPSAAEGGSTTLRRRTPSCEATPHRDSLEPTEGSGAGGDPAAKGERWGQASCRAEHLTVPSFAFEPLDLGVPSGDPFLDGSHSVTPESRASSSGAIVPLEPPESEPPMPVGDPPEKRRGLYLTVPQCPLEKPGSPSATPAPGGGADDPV
# method: Inhibition of human Cav3.2 T-type Ca2+ channel expressed in HEK293 cells assessed as effect on T-currents in response to -20 mV test pulse at -80 mV holding potential by whole cell patch-clamp assay
# Format: cell-based
pIC50: −log10 of the molar value.
Attribute: pIC50
recorded-endpoint: pIC50

- input-smiles: "O=c1n(CCCCc2ccccc2)c2ccccc2n1C1CCN(CCCCc2cccc(F)c2)CC1"
  study-system: "Voltage-dependent T-type calcium channel subunit alpha-1H (Homo sapiens, UniProt O95180)"
  recorded-endpoint: "pIC50"
  numeric-result: 6.82
- input-smiles: "O=c1n(CCCCc2cccc(F)c2)c2ccccc2n1C1CCN(CCCCc2cccc(F)c2)CC1"
  study-system: "Voltage-dependent T-type calcium channel subunit alpha-1H (Homo sapiens, UniProt O95180)"
  recorded-endpoint: "pIC50"
  numeric-result: 7.03

----------
# method: Toxicity in mouse assessed as catelepsy at 8 nmol per mouse, icv measured for 180 mins by bar test
# particulars: in vivo, icv_or_intrathecal, 3 h

- molecule: "O=c1n(CCCCc2ccccc2)c2ccccc2n1C1CCN(CCCCc2ccccc2)CC1"
  Activity: "Non-Toxic"
- molecule: "O=C(CCCc1ccccc1)N1CCC(n2c(=O)n(CCCCc3ccccc3)c3ccccc32)CC1"
  Activity: "Non-Toxic"
- molecule: "O=c1[nH]c2ccccc2n1C1CCN(CCCC(c2ccc(F)cc2)c2ccc(F)cc2)CC1 [PIMOZIDE]"
  Activity: "Toxic"
- molecule: "O=c1n(CCCCc2cccc(F)c2)c2ccccc2n1C1CCN(CCCCc2cccc(F)c2)CC1"
  Activity: "Non-Toxic"

----------
# study-system: Voltage-dependent T-type calcium channel subunit alpha-1H (Homo sapiens, UniProt O95180)
# method: Inhibition of human Cav3.2 T-type Ca2+ channel expressed in HEK293 cells assessed as reduction in T-currents at 0.3 uM at -80 mV holding potential by whole cell patch-clamp assay
# Assay type: cell-based
Active and inactive are the calls of the source. No cut-off for these calls is given here.
Possible outcomes: label 1 = active, label 0 = inactive

- input-smiles: "O=c1n(CCCCc2ccccc2)c2ccccc2n1C1CCN(CCCOc2ccccc2)CC1"
  class-label: "label 1"
- input-smiles: "COc1ccccc1CCCCn1c(=O)n(C2CCN(CCCCc3ccccc3)CC2)c2ccccc21"
  class-label: "label 1"
- input-smiles: "O=c1n(CCCCc2ccccc2)c2ccccc2n1C1CCN(CCCCc2ccccc2)CC1"
  class-label: "label 1"
- input-smiles: "O=c1n(CCCCc2ccccc2)c2ccccc2n1C1CCN(CCCCc2ccccc2F)CC1"
  class-label: "label 1"
- input-smiles: "O=c1n(CCCCc2ccccc2Cl)c2ccccc2n1C1CCN(CCCCc2ccccc2)CC1"
  class-label: "label 1"
- input-smiles: "COc1ccccc1CCCCN1CCC(n2c(=O)n(CCCCc3ccccc3)c3ccccc32)CC1"
  class-label: "label 1"
- input-smiles: "COc1ccccc1CCCCN1CCC(n2c(=O)n(CCCCc3ccccc3OC)c3ccccc32)CC1"
  class-label: "label 1"
- input-smiles: "O=c1n(CCCCc2ccccc2)c2ccccc2n1C1CCN(CCCC(c2ccc(F)cc2)c2ccc(F)cc2)CC1"
  class-label: "label 0"
- input-smiles: "O=c1n(CCCCc2cccc(F)c2)c2ccccc2n1C1CCN(CCCCc2cccc(F)c2)CC1"
  class-label: "label 1"
- input-smiles: "O=c1n(CCCCc2ccccc2)c2ccccc2n1C1CCN(CCCCc2cccc(F)c2)CC1"
  class-label: "label 1"
- input-smiles: "O=C(CCCc1ccccc1)N1CCC(n2c(=O)n(CCCCc3ccccc3)c3ccccc32)CC1"
  class-label: "label 1"

----------
Attribute: half-life
# method: Half life in mouse at 10 mg/kg, ip measured for 24 hrs by LC-MS/MS analysis
# Type: ADME, organism-based
# particulars: in vivo
recorded-endpoint: half-life (h)

- molecule: "O=c1n(CCCCc2cccc(F)c2)c2ccccc2n1C1CCN(CCCCc2cccc(F)c2)CC1"
  recorded-endpoint: "half-life"
  result-unit: "h"
  numeric-result: 2.42
- molecule: "O=c1[nH]c2ccccc2n1C1CCN(CCCC(c2ccc(F)cc2)c2ccc(F)cc2)CC1 [PIMOZIDE]"
  recorded-endpoint: "half-life"
  result-unit: "h"
  numeric-result: 2.47

----------
# study-system: Voltage-dependent T-type calcium channel subunit alpha-1G (Homo sapiens, UniProt O43497)
# Sequence (O43497 whole entry): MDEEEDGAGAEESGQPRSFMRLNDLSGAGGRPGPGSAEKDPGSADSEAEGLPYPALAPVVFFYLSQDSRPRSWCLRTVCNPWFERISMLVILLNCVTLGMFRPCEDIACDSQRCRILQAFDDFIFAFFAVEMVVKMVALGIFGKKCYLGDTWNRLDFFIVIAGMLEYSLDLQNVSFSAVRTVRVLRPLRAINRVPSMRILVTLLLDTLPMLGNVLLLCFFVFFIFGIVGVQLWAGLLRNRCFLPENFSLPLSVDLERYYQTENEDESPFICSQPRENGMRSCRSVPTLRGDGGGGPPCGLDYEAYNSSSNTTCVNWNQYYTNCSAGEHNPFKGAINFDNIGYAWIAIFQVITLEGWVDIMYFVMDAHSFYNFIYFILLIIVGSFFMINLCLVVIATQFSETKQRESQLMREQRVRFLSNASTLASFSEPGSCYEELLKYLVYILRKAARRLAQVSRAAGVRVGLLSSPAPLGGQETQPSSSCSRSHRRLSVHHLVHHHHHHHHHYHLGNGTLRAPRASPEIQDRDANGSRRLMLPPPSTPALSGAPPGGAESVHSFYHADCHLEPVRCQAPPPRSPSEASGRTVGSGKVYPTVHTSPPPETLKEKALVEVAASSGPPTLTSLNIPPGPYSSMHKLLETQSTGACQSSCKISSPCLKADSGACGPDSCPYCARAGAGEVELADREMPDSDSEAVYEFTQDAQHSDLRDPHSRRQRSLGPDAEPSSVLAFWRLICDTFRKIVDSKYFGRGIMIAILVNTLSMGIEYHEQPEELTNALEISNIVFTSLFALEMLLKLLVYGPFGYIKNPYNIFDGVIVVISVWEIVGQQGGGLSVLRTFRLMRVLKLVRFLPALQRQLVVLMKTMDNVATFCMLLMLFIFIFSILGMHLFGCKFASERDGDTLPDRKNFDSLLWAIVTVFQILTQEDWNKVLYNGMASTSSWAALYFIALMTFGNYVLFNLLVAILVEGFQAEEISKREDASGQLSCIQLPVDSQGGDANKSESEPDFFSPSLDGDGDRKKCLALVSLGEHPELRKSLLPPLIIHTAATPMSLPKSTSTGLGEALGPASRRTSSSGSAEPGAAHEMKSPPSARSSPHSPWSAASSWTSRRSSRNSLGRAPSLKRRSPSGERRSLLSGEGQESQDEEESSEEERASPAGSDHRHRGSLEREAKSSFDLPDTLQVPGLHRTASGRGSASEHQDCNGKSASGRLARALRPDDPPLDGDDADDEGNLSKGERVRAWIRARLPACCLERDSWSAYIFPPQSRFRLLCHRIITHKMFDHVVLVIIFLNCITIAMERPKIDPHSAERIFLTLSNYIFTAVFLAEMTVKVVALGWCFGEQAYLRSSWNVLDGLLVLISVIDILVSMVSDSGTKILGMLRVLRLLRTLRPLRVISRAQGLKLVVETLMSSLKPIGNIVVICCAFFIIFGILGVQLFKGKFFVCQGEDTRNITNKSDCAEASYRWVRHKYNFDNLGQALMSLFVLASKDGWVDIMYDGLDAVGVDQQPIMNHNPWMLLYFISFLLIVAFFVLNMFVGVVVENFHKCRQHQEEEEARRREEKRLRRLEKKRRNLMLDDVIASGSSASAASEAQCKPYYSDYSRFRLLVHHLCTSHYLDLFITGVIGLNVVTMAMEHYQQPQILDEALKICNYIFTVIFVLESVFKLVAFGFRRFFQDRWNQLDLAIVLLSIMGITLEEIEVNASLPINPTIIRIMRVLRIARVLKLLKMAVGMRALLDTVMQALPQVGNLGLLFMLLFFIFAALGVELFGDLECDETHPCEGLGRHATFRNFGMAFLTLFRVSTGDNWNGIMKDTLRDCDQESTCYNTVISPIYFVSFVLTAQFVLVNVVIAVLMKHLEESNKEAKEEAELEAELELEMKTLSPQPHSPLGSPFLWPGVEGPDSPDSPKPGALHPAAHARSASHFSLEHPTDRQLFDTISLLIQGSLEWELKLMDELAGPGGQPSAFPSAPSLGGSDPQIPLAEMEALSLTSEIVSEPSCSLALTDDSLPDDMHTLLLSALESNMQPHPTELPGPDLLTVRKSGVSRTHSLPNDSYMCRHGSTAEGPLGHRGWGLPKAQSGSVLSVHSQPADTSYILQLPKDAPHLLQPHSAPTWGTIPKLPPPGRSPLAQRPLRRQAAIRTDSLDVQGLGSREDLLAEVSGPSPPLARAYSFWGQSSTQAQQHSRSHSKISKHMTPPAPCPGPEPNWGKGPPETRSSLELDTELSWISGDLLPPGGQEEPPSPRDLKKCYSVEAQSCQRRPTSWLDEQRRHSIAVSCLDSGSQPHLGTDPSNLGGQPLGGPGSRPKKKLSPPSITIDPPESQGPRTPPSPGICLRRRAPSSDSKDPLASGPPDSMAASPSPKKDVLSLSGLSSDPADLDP
# method: Inhibition of human Cav3.1 T-type Ca2+ channel expressed in HEK293 cells assessed as effect on T-currents in response to -20 mV test pulse at -80 mV holding potential by whole cell patch-clamp assay
recorded-endpoint: IC50 (nM)

- compound: "O=c1n(CCCCc2ccccc2)c2ccccc2n1C1CCN(CCCCc2ccccc2)CC1"
  study-system: "Voltage-dependent T-type calcium channel subunit alpha-1G (Homo sapiens, UniProt O43497)"
  recorded-endpoint: "IC50"
  result-unit: "nM"
  numeric-result: 209
- compound: "O=C(CCCc1ccccc1)N1CCC(n2c(=O)n(CCCCc3ccccc3)c3ccccc32)CC1"
  study-system: "Voltage-dependent T-type calcium channel subunit alpha-1G (Homo sapiens, UniProt O43497)"
  recorded-endpoint: "IC50"
  result-unit: "nM"
  numeric-result: 240
- compound: "O=c1n(CCCCc2ccccc2)c2ccccc2n1C1CCN(CCCCc2cccc(F)c2)CC1"
  study-system: "Voltage-dependent T-type calcium channel subunit alpha-1G (Homo sapiens, UniProt O43497)"
  recorded-endpoint: "IC50"
  result-unit: "nM"
  numeric-result: 211
- compound: "O=c1n(CCCCc2cccc(F)c2)c2ccccc2n1C1CCN(CCCCc2cccc(F)c2)CC1"
  study-system: "Voltage-dependent T-type calcium channel subunit alpha-1G (Homo sapiens, UniProt O43497)"
  recorded-endpoint: "IC50"
  result-unit: "nM"
  numeric-result: 217
- compound: "O=c1[nH]c2ccccc2n1C1CCN(CCCC(c2ccc(F)cc2)c2ccc(F)cc2)CC1 [PIMOZIDE]"
  study-system: "Voltage-dependent T-type calcium channel subunit alpha-1G (Homo sapiens, UniProt O43497)"
  recorded-endpoint: "IC50"
  result-unit: "nM"
  numeric-result: 307
